These data points were gathered from ChEMBL document CHEMBL1201862.

# Tested on: NCI-H460
# test description: NCI tumour cell line growth inhibition, 48 h
Calls of active or inactive are those of the source. Cut-off read from the data, not from the text of the source: active = GI50 up to about 1.1 µM and inactive = higher.
observed property: GI50

These solved cases illustrate the format of a correct answer.
C/C=C(/C)C(=O)O[C@H]1C(C)=C[C@]23C(=O)[C@@H](C=C(COC(C)=O)[C@@H](O)[C@]12O)[C@H]1[C@@H](C[C@H]3C)[C@@]1(C)OC(=O)/C(C)=C\C	0.0244 µM (active)
O=C1CC2C(=O)N(Cc3ccccc3)C1C=C2S(=O)(=O)c1ccccc1 (stereo not drawn)	> 100 µM (inactive)

Now let's try a different one.
Can you look up the measured GI50 of CC1=C(C(=O)Nc2ccccc2)C(c2ccc3c(c2)OCO3)C(C(=O)Nc2ccccc2)=C(C)N1 for me?
43.9 µM (inactive)
